# TEST TARGET: mutant CFTR (Homo sapiens, UniProt P13569, DEL508-508)
# Construct: expressed in transfected cells
# Sequence (P13569 with tags, fused parts or gaps DEL508-508): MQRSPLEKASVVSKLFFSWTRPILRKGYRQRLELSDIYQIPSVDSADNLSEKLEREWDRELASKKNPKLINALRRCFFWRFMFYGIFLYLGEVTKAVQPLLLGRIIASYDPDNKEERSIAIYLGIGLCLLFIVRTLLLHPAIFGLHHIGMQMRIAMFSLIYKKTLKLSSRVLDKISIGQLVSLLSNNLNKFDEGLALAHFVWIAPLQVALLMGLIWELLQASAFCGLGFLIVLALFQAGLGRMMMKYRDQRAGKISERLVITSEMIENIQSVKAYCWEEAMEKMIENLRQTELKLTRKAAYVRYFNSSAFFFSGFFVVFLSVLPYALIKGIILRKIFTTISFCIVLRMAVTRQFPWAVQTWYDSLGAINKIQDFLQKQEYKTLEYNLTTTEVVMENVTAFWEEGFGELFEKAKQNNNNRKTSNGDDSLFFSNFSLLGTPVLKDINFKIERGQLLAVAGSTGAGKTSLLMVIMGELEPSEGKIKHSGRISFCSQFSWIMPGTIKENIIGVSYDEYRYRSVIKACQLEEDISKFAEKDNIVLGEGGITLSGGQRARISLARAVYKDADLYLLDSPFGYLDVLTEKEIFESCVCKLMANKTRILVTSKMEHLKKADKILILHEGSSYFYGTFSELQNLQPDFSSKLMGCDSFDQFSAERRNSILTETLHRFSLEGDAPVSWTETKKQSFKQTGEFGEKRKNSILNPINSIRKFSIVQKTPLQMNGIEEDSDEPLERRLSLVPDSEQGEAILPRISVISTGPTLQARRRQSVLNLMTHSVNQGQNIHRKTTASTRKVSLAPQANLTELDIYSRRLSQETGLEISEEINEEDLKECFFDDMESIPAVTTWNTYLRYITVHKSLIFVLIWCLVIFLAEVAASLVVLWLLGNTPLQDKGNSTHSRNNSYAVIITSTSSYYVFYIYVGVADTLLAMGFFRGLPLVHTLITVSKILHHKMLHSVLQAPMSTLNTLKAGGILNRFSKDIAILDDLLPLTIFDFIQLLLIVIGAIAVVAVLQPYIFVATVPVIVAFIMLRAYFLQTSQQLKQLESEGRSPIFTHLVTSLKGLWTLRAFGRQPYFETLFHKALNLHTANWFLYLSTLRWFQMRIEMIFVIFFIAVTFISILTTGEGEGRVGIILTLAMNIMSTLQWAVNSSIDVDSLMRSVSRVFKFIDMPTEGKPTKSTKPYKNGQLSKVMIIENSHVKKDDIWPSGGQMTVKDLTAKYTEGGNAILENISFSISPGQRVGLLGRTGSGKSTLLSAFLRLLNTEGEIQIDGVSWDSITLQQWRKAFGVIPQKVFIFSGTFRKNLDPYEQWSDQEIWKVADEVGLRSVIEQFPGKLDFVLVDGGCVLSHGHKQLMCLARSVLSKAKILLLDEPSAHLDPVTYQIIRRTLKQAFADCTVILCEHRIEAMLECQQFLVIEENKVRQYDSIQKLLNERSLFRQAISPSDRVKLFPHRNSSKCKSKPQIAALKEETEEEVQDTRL
# PROCEDURE DETAILS: Fluorescence (HS-YFP) assay for CFTR activity, corrector assay
# Type: cell-based
# COND: CFBE41o- and FRT cells with stable expression of mutant CFTR, read-out: activity (EC50)
pEC50: −log10 of the molar value.
QUANTITY MEASURED: pEC50

Record lookup: for mutant CFTR (Homo sapiens, UniProt P13569, DEL508-508), what pEC50 belongs to CN(C(=O)c1cccc(-n2nc(C(F)(F)F)c3c2C(Oc2ccc(C(=O)O)cc2)CCC3)c1)c1ccnc(OC(F)F)c1 (single isomer, unassigned) [Compound 289] ?
> 6.00

Also COc1ccc(N(C)C(=O)c2cccc(-n3nc(C(F)(F)F)c4c3CCN(C(=O)C(C)(C)C)C4)c2)cn1 , if possible.
> 6.00

Also Cc1noc(C)c1S(=O)(=O)N1[C@H]2CC[C@@H]1c1c(C(F)(F)F)nn(-c3cccc(C(=O)N(C)c4ccc5c(c4)OCO5)c3)c1C2 (single isomer, unassigned) , if possible.
> 6.00

Also CN(C(=O)c1cccc(-n2nc(C(F)(F)F)c3c2C(Oc2ccc(C(=O)O)cc2)COC3)c1)c1ccnc(OC(F)F)c1 (single isomer, unassigned) [Compound 290] , if possible.
> 6.00

Also O=C(O)c1ccc(OC2CCCc3c(C(F)(F)F)nn(-c4cccc(C(=O)Nc5ccc6c(c5)OC(F)(F)O6)c4)c32)cc1 (centres unmarked) , if possible.
< 5.70

Also COc1ncc(N(C)C(=O)c2cccc(-n3nc(C(F)(F)F)c4c3C(Oc3ccc(C(=O)O)cc3)CCC4)c2)cn1 (centres unmarked) , if possible.
> 6.00

Also COc1cncc(N(C)C(=O)c2cccc(-n3nc(C(F)(F)F)c4c3C(Oc3ccc(C(=O)O)cc3)CCC4)c2)c1 (centres unmarked) , if possible.
> 6.00

Also CN(C(=O)c1cccc(-n2nc(C(F)(F)F)c3c2CCN(S(C)(=O)=O)C3)c1)c1ccc2c(c1)OCO2 , if possible.
> 6.00

Also CN(C(=O)c1cccc(-n2nc(C(F)(F)F)c3c2CCN(C(=O)C2(O)CC2)C3)c1)c1ccc2c(c1)OCO2 , if possible.
> 6.00

Also CN(C(=O)c1cccc(-n2nc(C(F)(F)F)c3c2CCN(C2CC(C(=O)O)C2)C3)c1)c1ccc2c(c1)OCO2 (centres unmarked) , if possible.
< 5.70

Also Cc1cn2cc(NC(=O)c3cccc(-n4nc(C(F)(F)F)c5c4CCN(C(=O)C(C)(C)C)C5)c3)ccc2n1 , if possible.
< 5.70

Also CN(C(=O)c1cccc(-n2nc(C(F)(F)F)c3c2C(Oc2ccc(C(=O)O)cn2)CCC3)c1)c1ccc2c(c1)OC(F)(F)O2 (centres unmarked) [Compound 180] , if possible.
> 6.00

Also Cc1noc(C)c1S(=O)(=O)N1CCc2c(c(C(F)(F)F)nn2-c2cccc(C(=O)N(C)c3ccc4c(c3)OCO4)c2)C1 , if possible.
> 6.00

Also Cc1cn2cc(N(C)C(=O)c3cccc(-n4nc(C(F)(F)F)c5c4CCN(C(=O)C(C)(C)C)C5)c3)ccc2n1 , if possible.
5.70 to 6.00

meta.source: patent US10968225B2
